target: Mas-related G-protein coupled receptor member X1 (Homo sapiens); assay: blockade of BAM8-22-evoked MrgX1 calcium response – HEK293 cells, Fluo-4 calcium flux, primary screen (AID 588676); conditions: Fluo-4, BAM8-22 antagonism, at 10 µM; hits give low values;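 for B-score: peak minus trough fluorescence over baseline after final BAM8-22 challenge near maximal dose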
In all, about 310,000 compounds went through this assay and about 3,900 (1.3%) were called active. The sample as a whole holds a higher share of actives than the screen did.
MEASURED_METRIC: B-score

COMPOUND	TARGET_DESC	MEASURED_METRIC	ASSAY_VALUE
Clc1ccc(Nc2ccc3ccccc3n2)cc1	Mas-related G-protein coupled receptor member X1 (Homo sapiens)	B-score	inactive
CC(=O)Nc1cccc(Oc2cc(C#N)c(C#N)cc2N2CCOCC2)c1	Mas-related G-protein coupled receptor member X1 (Homo sapiens)	B-score	inactive
CCN1CCN(CCNC(=O)c2ccc3c(c2)NC(=O)/C(=C\c2ccc(OC)c(OC)c2)S3)CC1	Mas-related G-protein coupled receptor member X1 (Homo sapiens)	B-score	inactive
CCN1CCN(CCNC(=O)c2ccc(/C=C3/Sc4ccccc4N(Cc4cccc(C)c4)C3=O)cc2)CC1	Mas-related G-protein coupled receptor member X1 (Homo sapiens)	B-score	-7.53 (active)
O=C(CSc1c2c(nc3ccc(Cl)cc13)CCCC2)NCc1ccco1	Mas-related G-protein coupled receptor member X1 (Homo sapiens)	B-score	-6.85 (active)
O=C(/C=C/c1ccc(Cl)cc1Cl)NCc1ccco1	Mas-related G-protein coupled receptor member X1 (Homo sapiens)	B-score	inactive
COc1cc(N2CCCC2)c(OC)cc1/C=C(/C#N)c1cccc(Br)c1	Mas-related G-protein coupled receptor member X1 (Homo sapiens)	B-score	-7.19 (active)
O=C1CSC2=NCN(c3ccccc3)CN12	Mas-related G-protein coupled receptor member X1 (Homo sapiens)	B-score	inactive
COc1ccc(C)cc1NC(=S)N1CCOCC1	Mas-related G-protein coupled receptor member X1 (Homo sapiens)	B-score	inactive
CCOC(=O)C1CCN(C(=O)CN2C(=O)c3cccnc3Oc3ccc(C)cc32)CC1	Mas-related G-protein coupled receptor member X1 (Homo sapiens)	B-score	inactive
Cc1occc1C(=O)NC1CCCN(Cc2ccc(CC(C)C)cc2)C1 (stereo unspecified)	Mas-related G-protein coupled receptor member X1 (Homo sapiens)	B-score	inactive
